Field: % Cross-Reaction 1X-Ab. Provide a value for each of the compounds that follow.
Test system: 1X-Ab
Test: Competitive antigen ELISA, cross-reactivity of 1X-Ab
Assay type: binding, rabbit
Conditions: 0 = absence of inhibition or inhibition no higher than 40% at 5 × 10^−3 M
Answers are plain numbers, in %.

Example cases with answers are listed next.
Can you look up the measured % Cross-Reaction 1X-Ab of "CC(=O)Nc1c(N)n(C)c(=O)[nH]c1=O" for me?
0

Can you look up the measured % Cross-Reaction 1X-Ab of "O=c1[nH]c(=O)c2[nH]c(=O)[nH]c2[nH]1" for me?
0

Can you look up the measured % Cross-Reaction 1X-Ab of "Cn1c(=O)c2c(ncn2C)n(C)c1=O" for me?
0

Can you look up the measured % Cross-Reaction 1X-Ab of "Cn1c(=O)[nH]c2[nH]c(=O)n(C)c2c1=O" for me?
0

For each of the items listed, what is its % Cross-Reaction 1X-Ab?
1. Nc1nc2nc[nH]c2c(=O)[nH]1
2. CC(=O)Nc1c(N)[nH]c(=O)[nH]c1=O
3. Cn1cnc2c1c(=O)[nH]c(=O)n2C
4. O=c1cc[nH]c(=O)[nH]1
5. O=c1[nH]c(=O)c2[nH]cnc2[nH]1
6. Cn1c(=O)[nH]c2nc[nH]c2c1=O

0
0
0
0
0
100

* * *

Test system: 1X-Ab
Assay: Competitive antigen ELISA, cross-reactivity of 1X-Ab
Format: binding, rabbit
Settings: 0 = absence of inhibition or inhibition no higher than 40% at 5 × 10^−3 M
PROPERTY MEASURED: % Cross-Reaction 1X-Ab (%)
Give bare numbers, in %.

Example cases with answers are listed next.
Can you look up the measured % Cross-Reaction 1X-Ab of Cn1c(=O)[nH]c2[nH]c(=O)[nH]c2c1=O [1-Methyluric acid] for me?
11

Can you look up the measured % Cross-Reaction 1X-Ab of Cn1c(=O)[nH]c(=O)c2[nH]cnc21 [3-Methyl Xanthine] for me?
0

Can you look up the measured % Cross-Reaction 1X-Ab of Cn1c(=O)[nH]c2ncn(C)c2c1=O [1,7-Dimethyl Xanthine (Paraxanthine), 1,7-Dimethyl Xanthine] for me?
0.5

Can you look up the measured % Cross-Reaction 1X-Ab of CC(=O)Nc1c(N)n(C)c(=O)n(C)c1=O [5-Acetamino-6-amino-1,3-dimethyluracil] for me?
0

Can you look up the measured % Cross-Reaction 1X-Ab of Cc1nc2[nH]c(=O)[nH]c(=O)c2[nH]1 [8-Methyl Xanthine] for me?
0

Can you look up the measured % Cross-Reaction 1X-Ab of O=c1[nH]cnc2nc[nH]c12 [Hypoxanthine] for me?
0

For each of the items listed, what is its % Cross-Reaction 1X-Ab?
1. Cn1cnc2[nH]c(=O)[nH]c(=O)c21 [7-Methyl Xanthine]
2. Cn1c(=O)c2[nH]cnc2n(C)c1=O [1,3-Dimethyl Xanthine (Theophylline), 1,3-Dimethyl Xanthine]

[0, 0.2]

Provenance of the data: patent US20030195350A1
